Measured Percentage of the compound remaining in plasma of individual entries
assay: Stability in rat plasma; details: 37° C., 30 minutes
Readout: Percentage of the compound remaining in plasma (%)

molecule=O=C(OCOc1ccc([N+](=O)[O-])c2cccnc12)N1CCOCC1 reported=98.6
molecule="CN(CC(O)CO)C(=O)OCOc1ccc([N+](=O)[O-])c2cccnc12 (stereo not drawn)" reported=90.1
molecule="CC(C)OC(=O)[C@H](C)NP(=O)(OCOc1ccc([N+](=O)[O-])c2cccnc12)Oc1ccccc1 (stereo partly drawn)" reported=0.0
molecule=CC(C)(C)OP(=O)(OCOc1ccc([N+](=O)[O-])c2cccnc12)OC(C)(C)C reported=80.7
molecule=CN1CCN(C(=O)OCOc2ccc([N+](=O)[O-])c3cccnc23)CC1 reported=98.8
molecule=COC(=O)CN(C)C(=O)Oc1ccc([N+](=O)[O-])c2cccnc12 reported=0.0
